The entries below are paired with their reported pIC50.
MEASURED TARGET: human JAK1 kinase domain (JH1) (Homo sapiens, UniProt P23458)
Construct: recombinantly generated catalytic kinase (also known as JH1) domain of human JAK1, JAK2, JAK3 and TYK2
Sequence (P23458 875-1153 limits assumed): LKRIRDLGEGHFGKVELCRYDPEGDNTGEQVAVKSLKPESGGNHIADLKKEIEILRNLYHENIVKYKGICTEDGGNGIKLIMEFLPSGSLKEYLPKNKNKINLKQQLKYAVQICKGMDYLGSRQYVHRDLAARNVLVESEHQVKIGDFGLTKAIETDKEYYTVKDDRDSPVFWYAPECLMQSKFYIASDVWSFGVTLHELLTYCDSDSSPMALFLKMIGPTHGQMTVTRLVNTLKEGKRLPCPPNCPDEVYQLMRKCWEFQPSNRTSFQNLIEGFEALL
ASSAY NAME: JH1 biochemical assay for JAK1 (ADP-Glo kinase assay, recombinant JH1 catalytic domain, JAK3-342 peptide, 35 μM ATP)
MEASUREMENT CONDITIONS: JH1 kinase domain, ADP-Glo
pIC50: −log10 of the molar value. Counter-ions that a name gives are not always drawn.

INSERT INTO measurements (compound, measured_target, observed_value) VALUES
  ('C[C@@H]1CN(c2ccnn3cc(-c4cccnc4)cc23)C(=O)[C@]1(C#N)C1CC1', 'human JAK1 kinase domain (JH1) (Homo sapiens, UniProt P23458)', '6.00 to 7.00'),
  ('C[C@@H]1CN(c2ccnn3cc(-c4cnn5c4CCC5)cc23)C(=O)[C@]1(C#N)C1CC1', 'human JAK1 kinase domain (JH1) (Homo sapiens, UniProt P23458)', '6.00 to 7.00'),
  ('CC[C@@H]1CN(c2ccnn3cc(-c4cnn(C)c4)cc23)C(=O)[C@]1(C#N)C1CC1', 'human JAK1 kinase domain (JH1) (Homo sapiens, UniProt P23458)', '6.00 to 7.00'),
  ('C[C@@H]1CN(c2ccnn3cc(-c4nc5cnccc5s4)cc23)C(=O)[C@]1(C#N)C1CC1 [Example 102, trifluoroacetate]', 'human JAK1 kinase domain (JH1) (Homo sapiens, UniProt P23458)', '6.00 to 7.00'),
  ('Cc1nc(-c2cn3nccc3c(N3C[C@@H](C)[C@@](C#N)(C4CC4)C3=O)n2)cs1', 'human JAK1 kinase domain (JH1) (Homo sapiens, UniProt P23458)', '6.00 to 7.00');

Look up pIC50 for this compound: C[C@@H]1CN(c2ccnn3cc(-c4cc(C(F)(F)F)nn4C)cc23)C(=O)[C@]1(C#N)C1CC1 [Example 107, trifluoroacetate]
5.30 to 6.00

Look up pIC50 for this compound: `C[C@@H]1CN(c2nc(-c3cnn(C)c3)cn3ncc(F)c23)C(=O)[C@]1(C#N)C1CC1`
> 7.00
